B1: Gamma-crystallin D, residues 90 to 170; numbered along this chain, P07320 (parent)
chain: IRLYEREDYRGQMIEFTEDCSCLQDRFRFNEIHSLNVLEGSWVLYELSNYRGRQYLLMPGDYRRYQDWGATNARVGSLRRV

# Variants of: B1
# Experiment notes: abundance fitness (aPCA) (normalised: wild type 0, dead -1); higher = more abundant; growth selection in yeast, the domain comes from the species named
# Condition context: Homo sapiens
Property measured: abundance fitness
Give bare numbers.

Observe how each entry below is paired with its result.
Variant spec: D19C
Property measured: abundance fitness
Reported value: -0.065
--
Variant spec: R10C
Property measured: abundance fitness
Reported value: 0.046
--
Variant spec: R28A
Property measured: abundance fitness
Reported value: -0.005

Return reported abundance fitness values for all items listed beneath this line.
1. C20H
2. Y50R
3. L35G
4. E39M
5. D19T
6. E15R
7. E39G

Result string:
1. -0.104
2. -0.19
3. 0.035
4. -0.054
5. 0.039
6. -0.084
7. 0.084

Where do these numbers come from? They come from the Human Domainome abundance scans (Beltran et al. 2025).
